Values compiled from PubChem BioAssay AID1851.

Target: Cytochrome P450 1A2 (Homo sapiens) (UniProt P05177)
Sequence (P05177 whole entry, looked up): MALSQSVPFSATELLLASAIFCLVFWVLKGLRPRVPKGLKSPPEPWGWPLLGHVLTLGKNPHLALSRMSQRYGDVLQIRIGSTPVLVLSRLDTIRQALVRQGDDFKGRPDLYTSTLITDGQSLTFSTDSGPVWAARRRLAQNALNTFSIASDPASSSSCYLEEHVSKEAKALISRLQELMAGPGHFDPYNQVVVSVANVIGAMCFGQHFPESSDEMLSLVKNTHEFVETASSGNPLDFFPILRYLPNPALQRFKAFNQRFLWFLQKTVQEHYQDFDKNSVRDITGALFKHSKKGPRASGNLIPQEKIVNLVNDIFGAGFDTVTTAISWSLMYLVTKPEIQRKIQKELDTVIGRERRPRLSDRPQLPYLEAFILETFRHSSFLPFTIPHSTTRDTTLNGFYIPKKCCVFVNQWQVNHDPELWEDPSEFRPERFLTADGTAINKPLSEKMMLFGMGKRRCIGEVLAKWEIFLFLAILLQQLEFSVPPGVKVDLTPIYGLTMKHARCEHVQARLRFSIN
Test: Cytochrome panel assay with activity outcomes
Details: recombinant CYP, pro-luciferin dealkylation, luminescence, p450-cyp1a2; series mostly up to 57.1 µM
Out of some 16,000 compounds screened, about 5,700 (36%) were called active. Roughly 24% stayed inconclusive and do not appear here. The call rests on the fitted dose curve; in most records, active means well fitted curve in the direction sought with a large enough effect; inconclusive means small, poorly fitted or top-dose-only effect, or effect the other way; inactive means no such curve, though single readings can be large or run the other way. Some of the results follow.
Labels: Yes for active, No for inactive

O=C(CCc1ccc(O)cc1)c1c(O)cc(O)cc1O    Yes
COc1ccc(C(Cl)=C(c2ccc(OC)cc2)c2ccc(OC)cc2)cc1    No
O=c1cnc2cnc(Nc3ccccc3)nc2n1C1CC1    Yes
CCOC(=O)C(NC(C)=O)C(OC(C)=O)c1cccc(N(CCO)CCO)c1 (stereo unspecified)    No
CCN(CC)c1cc(C)c2cc(NC(=O)CNC(C)=O)ccc2n1    No
O=S(=O)(c1ccccc1)N1CCC2(CCN(Cc3ccncc3)CC2)CC1    No
O=[N+]([O-])c1cccc(-c2nc(-c3cccs3)c(-c3cccs3)[nH]2)c1    Yes
OCCN1CCN(CCC=C2c3ccccc3Sc3ccc(Cl)cc32)CC1    Yes
CSc1ccc(CNc2ccccc2)cc1    Yes
CCC[C@H]1C[C@H](C(=O)N[C@H]([C@@H]2O[C@H](SC)[C@@H](O)[C@H](O)[C@@H]2O)[C@H](C)O)N(C)C1    No
O=C(c1cc(C(F)(F)F)cc(C(F)(F)F)c1)N1CCC2(CCCN(Cc3ccncc3)C2)CC1    No
CCOc1ccc(N(C(=O)/C=C/C(=O)Nc2cc(C)on2)C(C(=O)NC2CCCC2)c2ccccc2C)cc1 (stereo unspecified)    No
CN(C)CC/C=C1\c2ccccc2COc2ccccc21    Yes
N#Cc1ccc(CN2CCCC3(CCN(S(=O)(=O)c4ccccc4)CC3)C2)cc1    No
Cc1ccc(NC(=O)c2cc(Cl)nc3ccccc23)cc1    Yes
O=C(c1cc(C(F)(F)F)cc(C(F)(F)F)c1)N1CCC[C@@]2(CCN(c3ccncc3)C2)C1    No
CC(=O)NCCNc1nc(-c2ccccc2C)nc2ccccc12    Yes
COc1ccc(-c2nc(-c3ccccc3)c(-c3cc([N+](=O)[O-])ccc3C)[nH]2)cc1O    Yes
N#Cc1ccc(CN2CC[C@@]3(CCCN(C(=O)c4cc(C(F)(F)F)cc(C(F)(F)F)c4)C3)C2)cc1    Yes
Cc1nn(C)cc1C(C(=O)NC1CCCCC1)N(C(=O)Cc1cccs1)c1ccc(C(C)C)cc1 (stereo unspecified)    No
O=C(OCCNC(=O)c1ccc2ccccc2n1)c1ccc(F)cc1    Yes
O=C(CN1C(=O)C2C3C=CC(C3)C2C1=O)Nc1ccc(C(=O)O)cc1 (stereo unspecified)    No
CC(=O)N1CCC2(CCN(Cc3ccncc3)CC2)CC1    No
COc1ccc(C(=S)Nc2ccccc2)cc1    Yes
O=C(c1ccncc1)N1CCC2(CCN(Cc3ccncc3)CC2)CC1    No
COCCCNC(=O)CN(c1ccc(OC)cc1)S(=O)(=O)c1ccc(NC(C)=O)cc1    No
CN[C@@H]1[C@H](O[C@@H]2O[C@H](CO)[C@@H](N)[C@H](O)[C@@H]2O)O[C@H]2C[C@@H](N)[C@@H](O[C@H]3[C@@H](O)[C@H](O)[C@H](N)C[C@@H]3N)O[C@H]2[C@H]1O    No
N#Cc1ccc(CN2CCC3(CC2)CCN(C(=O)c2cc(C(F)(F)F)cc(C(F)(F)F)c2)CC3)cc1    No
COc1ncc2nc(-c3cc(F)cc(F)c3)c(=O)n(C[C@H]3CCCO3)c2n1    Yes
CC(=O)NCCNc1nc(-c2ccccc2C(F)(F)F)nc2ccccc12    Yes
C[C@@H](CCc1ccc(O)cc1)NCCc1ccc(O)c(O)c1    No
COc1ncc2nc(-c3ccc(Cl)cc3)c(=O)n(C[C@H]3CCCO3)c2n1    Yes
COc1ccc(NC(=O)N2CCCC2C(=O)Nc2ccccc2)cc1 (stereo unspecified)    No
CSc1ccc(CNc2ccc(Cl)cc2)cc1    Yes
COc1cccc(Nc2ncc3nc(C)c(=O)n(C4CC4)c3n2)c1    Yes
NC(N)=NC(N)=Nc1ccccc1 (tested in a mixture with another compound)    Yes
C=CCNc1nc(Cl)nc(Nc2ccc(OC)cc2)n1    Yes
O=[N+]([O-])c1cccc(-c2nc(-c3ccccc3)c(-c3cccs3)[nH]2)c1    Yes
COc1ccc(S(=O)(=O)N2CCCCCC2)cc1N(C)S(=O)(=O)c1ccc(Cl)cc1    No
Cc1sc2c(c1C)c(=O)n(-c1ccccc1)c1nnc(C)n21    No
CC(C)CN1CCC2(CC1)CCN(C(=O)c1ccncc1)CC2    No

###

Target: Cytochrome P450 1A2 (Homo sapiens) (UniProt P05177)
Assay: Cytochrome panel assay with activity outcomes
Details: recombinant CYP, pro-luciferin dealkylation, luminescence, p450-cyp1a2; series mostly up to 57.1 µM
In all, about 16,000 compounds went through this assay and about 5,700 (36%) were called active. About 24% were inconclusive and are not listed. Calls come from the whole dose curve; as a rule, active = well fitted curve in the direction sought with a large enough effect; inconclusive = small, poorly fitted or top-dose-only effect, or effect the other way; inactive = no such curve, though single readings can be large or run the other way. The list shows a part of the results.
Outcome codes: yes for active, no for inactive

O=C(Nc1ncn[nH]1)c1ccc([N+](=O)[O-])cc1[N+](=O)[O-]    no
Cc1nc2cnc(Nc3ccccc3)nc2n(Cc2cccs2)c1=O    yes
Cc1ccccc1Cn1cc(NC(=O)CSc2nc3c(c(C(F)(F)F)n2)CCc2ccccc2-3)cn1    yes
O=C(c1ccco1)N1CCC2(CC1)CN(Cc1cc(C(F)(F)F)cc(C(F)(F)F)c1)C2    no
COc1c2c(nc3ccccc13)O[C@H]([C@@](C)(O)CO)C2    yes
CC(C)(C)c1ccccc1OCCN1CCCC1    yes
O=C(NNS(=O)(=O)c1cc(Cl)cc(Cl)c1)c1sccc1-n1cccc1    yes
CCOC(=O)/C(C#N)=C1/C=CN(C)C=N1    no
CN1CC[C@@]2(CCCN(C(=O)c3cccn3C)C2)C1    no
COC(=O)[C@@H]1C[C@H]1[C@@H](NC(=O)c1ccccc1)c1ccccc1    yes
CC(=O)N1CCC[C@@]2(CCN(c3ccncc3)C2)C1    no
Cc1nn(Cc2ccc(Cl)cc2)c(C)c1NC(=O)CSc1nc2c(c(C(F)(F)F)n1)CCc1ccccc1-2    no
COc1ccc(-c2nc3cnc(Nc4cccc(OC)c4)nc3n(Cc3cccs3)c2=O)cc1    no
CCc1ccc(-c2cc(C(F)(F)F)n3nc(C(=O)Nc4cnn(Cc5ccccc5C)c4)cc3n2)s1    no
O=c1cnc2cnc(Nc3ccccc3)nc2n1Cc1cccs1    yes
Oc1ccc2ccccc2c1C=NCc1c(O)ccc2ccccc12    yes
O=C(c1ccco1)N1CCC2(CC1)CN(C(c1ccccc1)c1ccccc1)C2    no
O=C(c1cccc(F)c1)N1CCC[C@@]2(CCN(C(c3ccccc3)c3ccccc3)C2)C1    no
COc1cccc(Nc2ncc3nc(C)c(=O)n(Cc4cccs4)c3n2)c1    yes
CC(C)COP(=O)(OCC(C)C)C(O)c1ccccc1F (configuration not stated)    no
O=C(NCc1ccco1)c1nc2c(nnn2Cc2cccc(Cl)c2)c(=O)[nH]1    no
Cc1ccccc1OCCCN1CCCC1    no

###

Molecular target: Cytochrome P450 1A2 (Homo sapiens) (UniProt P05177)
Assay: Cytochrome panel assay with activity outcomes
Conditions: recombinant CYP, pro-luciferin dealkylation, luminescence, p450-cyp1a2; series mostly up to 57.1 µM
Out of some 16,000 compounds screened, about 5,700 (36%) were called active. About 24% were inconclusive and are not listed. The call rests on the fitted dose curve; in most records, active means well fitted curve in the direction sought with a large enough effect; inconclusive means small, poorly fitted or top-dose-only effect, or effect the other way; inactive means no such curve, though single readings can be large or run the other way. Some of the results follow.
Outcome codes: active, inactive

COc1ccccc1NC(=O)c1cnc2n(c1=O)CCS2    active
CCn1cnc2sc(C(=O)N3CCN(c4ccc(OC)cc4)CC3)c(C)c2c1=O    inactive
Oc1ccc([C@@H]2CNCCc3c2cc(O)c(O)c3Cl)cc1    inactive
CCCCN(Cc1ccccc1)C(=O)c1cnc2n(c1=O)CCS2    inactive
Cc1ccccc1CS(=O)(=O)Cc1ccc(C(=O)NCc2cccnc2)o1    active
CCOc1ccc(OCc2ccc(C(=O)NCc3cccnc3)o2)cc1    active

###

Target: Cytochrome P450 1A2 (Homo sapiens) (UniProt P05177)
Test: Cytochrome panel assay with activity outcomes
Settings: recombinant CYP, pro-luciferin dealkylation, luminescence, p450-cyp1a2; series mostly up to 57.1 µM
The whole screen tested about 16,000 compounds, of which about 5,700 (36%) were called active. Not shown: some 24% with an inconclusive outcome. The call rests on the fitted dose curve; in most records, active means well fitted curve in the direction sought with a large enough effect; inconclusive means small, poorly fitted or top-dose-only effect, or effect the other way; inactive means no such curve, though single readings can be large or run the other way. Some of the results follow.
Labels: true = active, false = inactive

Cc1nn(-c2ccccc2)c(Cl)c1/C=N/NC(=O)c1ccco1    true
CCn1c(SCC(=O)Nc2ccccc2C(=O)OC)nnc1-c1ccc(N)cc1    true
Cc1ccc(-n2nc(C)c3c2OC(N)=C(C#N)C3c2ccco2)cc1 (stereo unspecified)    true
O=C(Cc1csc(Nc2nc(=S)[nH]c3ccccc23)n1)NCc1cccc(Cl)c1    true
O=C(Nc1c(C(=O)N2CCCCC2)cnn1-c1ccccc1)c1ccco1    false
COc1ccc(CNCCc2ccccc2)cc1OCC(N)=O    false
CNC(=S)N1CCN(c2cccc(OC)c2)CC1    true
COc1ccccc1N1CCN(CCCCN2C(=O)c3ccccc3C2=O)CC1    false
COc1ccc(N2CCN(C(=S)Nc3cc(C)cc(C)c3)CC2)cc1    false
Clc1cccc(CSc2nnc(-c3sccc3-n3cccc3)o2)c1    true
Cc1nn(-c2ccccc2)c(C)c1/C=N/NC(=O)c1cc(-c2ccc(Cl)s2)[nH]n1    true
